These measurements were taken from ChEMBL document CHEMBL1133633.

# Test system: Helicobacter pylori
# assay: The lowest drug concentration that inhibited macroscopic colonial growth against Helicobacter pylori.
# Type: functional
Would you kindly list MIC for each of these compounds?

CC(=O)NCc1ccc(-c2csc(N=C(N)N)n2)cc1 :: > 100 µg/mL
CC/N=C(\N)Nc1nc(-c2cccc(CNC(C)=O)c2)cs1 :: 3.6 µg/mL
CC(=O)NCc1cccc(-c2csc(N=C(N)N)n2)c1 :: 16.5 µg/mL
CC(=O)Nc1ccc2c(c1)-c1nc(N=C(N)N)sc1CCO2 :: > 100 µg/mL
C/N=C(\N)Nc1nc(-c2cccc(CNC(C)=O)c2)cs1 :: 14.4 µg/mL

Give me MIC for each of these compounds, listed below.
1. CC(=O)NCc1cccc2c1OCCc1sc(N=C(N)N)nc1-2
2. CC(=O)Nc1ccc2c(c1)-c1nc(N=C(N)N)sc1CS2

Result:
1. > 100 µg/mL
2. > 100 µg/mL
